runConditions: in methanol, 333.15 K
reportedEndpoint: solubility (mole fraction)
Form field (numeric): enter value without unit.

Ask | Which value of solubility (mole fraction) has been reported for O=C(O)c1cc2ccccc2[nH]1 in the records?
Reply | 0.23

###

runConditions: in isopropanol, 342.25 K
reportedEndpoint: solubility (mole fraction)
# print the numeric value only

Ask | Please look up its solubility (mole fraction): O=C(O)c1cc2ccccc2[nH]1
Reply | 0.171

###

runConditions: in water, 293.15 K
reportedEndpoint: solubility (mole fraction)
Please reply with the value in numeric form only.

Ask | Name the recorded solubility (mole fraction) for O=C(O)c1cc2ccccc2[nH]1 .
Reply | 6.79e-05

###

runConditions: in ethyl acetate, 290.45 K
reportedEndpoint: solubility (mole fraction)
// return a plain number; no unit text

Ask | Can you share its solubility (mole fraction)? I mean this compound: O=C(O)c1cc2ccccc2[nH]1
Reply | 0.06

###

runConditions: in methanol, 288.95 K
reportedEndpoint: solubility (mole fraction)
// no unit, no text: just the number

Ask | Any idea what solubility (mole fraction) was measured for O=C(O)c1cc2ccccc2[nH]1 ?
Reply | 0.0723

###

runConditions: in toluene, 313.55 K
reportedEndpoint: solubility (mole fraction)

Ask | I'd like to know its solubility (mole fraction). The compound in question is O=C(O)c1cc2ccccc2[nH]1
Reply | 0.00104

###

runConditions: in n-propanol, 358.15 K
reportedEndpoint: solubility (mole fraction)

Ask | Value lookup for solubility (mole fraction); key = O=C(O)c1cc2ccccc2[nH]1
Reply | 0.18

###

runConditions: in n-propanol, 339.15 K
reportedEndpoint: solubility (mole fraction)

Ask | For the compound O=C(O)c1cc2ccccc2[nH]1 , what solubility (mole fraction) is on record?
Reply | 0.138

###

runConditions: in methanol, 328.25 K
reportedEndpoint: solubility (mole fraction)
Lab note: record just the number, no unit beside it.

Ask | Fill in: solubility (mole fraction) of O=C(O)c1cc2ccccc2[nH]1 is ___
Reply | 0.189

###

runConditions: in ethyl acetate, 313.95 K
reportedEndpoint: solubility (mole fraction)

Ask | // query solubility (mole fraction) value for entry O=C(O)c1cc2ccccc2[nH]1
Reply | 0.116

###

runConditions: in methanol, 307.85 K
reportedEndpoint: solubility (mole fraction)

Ask | I would be grateful if you could share the reported solubility (mole fraction) for O=C(O)c1cc2ccccc2[nH]1 .
Reply | 0.102

###

runConditions: in toluene, 342.55 K
reportedEndpoint: solubility (mole fraction)
Hey, just send me the number, nothing else.

Ask | Endpoint output: solubility (mole fraction) of O=C(O)c1cc2ccccc2[nH]1 . Value?
Reply | 0.00379

###

runConditions: in toluene, 302.85 K
reportedEndpoint: solubility (mole fraction)

Ask | Which value of solubility (mole fraction) has been reported for O=C(O)c1cc2ccccc2[nH]1 in the records?
Reply | 0.000786

###

runConditions: in dichloromethane, 283.15 K
reportedEndpoint: solubility (mole fraction)
Lab note: record the figure alone, no unit after it.

Ask | What solubility (mole fraction) value was documented for this compound, O=C(O)c1cc2ccccc2[nH]1 ?
Reply | 0.000684

###

runConditions: in toluene, 287.85 K
reportedEndpoint: solubility (mole fraction)
Number, no unit, nothing else.

Ask | Which solubility (mole fraction) value belongs to O=C(O)c1cc2ccccc2[nH]1 ?
Reply | 0.00052

###

runConditions: in water, 358.15 K
reportedEndpoint: solubility (mole fraction)
Number only, please.

Ask | Looking for the measured solubility (mole fraction) of O=C(O)c1cc2ccccc2[nH]1 , can you help?
Reply | 0.00155

###

runConditions: in water, 343.15 K
reportedEndpoint: solubility (mole fraction)
Please state the value as a number alone, without comment.

Ask | Name the recorded solubility (mole fraction) for O=C(O)c1cc2ccccc2[nH]1 .
Reply | 0.000409

###

runConditions: in isopropanol, 321.35 K
reportedEndpoint: solubility (mole fraction)

Ask | What does the data say about its solubility (mole fraction)? Entry: O=C(O)c1cc2ccccc2[nH]1
Reply | 0.119

###

runConditions: in 1,4-dioxane, 291.25 K
reportedEndpoint: solubility (mole fraction)
Give a plain numeric answer without units written out.

Ask | I'd like to know its solubility (mole fraction). The molecule in question is O=C(O)c1cc2ccccc2[nH]1
Reply | 0.00343

###

runConditions: in n-propanol, 311.25 K
reportedEndpoint: solubility (mole fraction)

Ask | For the molecule O=C(O)c1cc2ccccc2[nH]1 , what solubility (mole fraction) is on record?
Reply | 0.088

###

runConditions: in n-butanol, 305.25 K
reportedEndpoint: solubility (mole fraction)
Format: numeric value only, no unit, no commentary.

Ask | # input molecule: O=C(O)c1cc2ccccc2[nH]1 ; wanted: its solubility (mole fraction)
Reply | 0.0758

###

runConditions: in isopropanol, 328.65 K
reportedEndpoint: solubility (mole fraction)
Quick one: just the number, no unit, thanks!

Ask | What value of solubility (mole fraction) has been recorded for this entry: O=C(O)c1cc2ccccc2[nH]1
Reply | 0.131

###

runConditions: in 1,4-dioxane, 326.55 K
reportedEndpoint: solubility (mole fraction)
Please give only the number in your answer, with no unit.

Ask | Value lookup for solubility (mole fraction); key = O=C(O)c1cc2ccccc2[nH]1
Reply | 0.00728

###

runConditions: in isopropanol, 353.25 K
reportedEndpoint: solubility (mole fraction)
Answer with the value's number alone.

Ask | Entry O=C(O)c1cc2ccccc2[nH]1 : reported solubility (mole fraction) = ?
Reply | 0.201

###

runConditions: in isopropanol, 285.15 K
reportedEndpoint: solubility (mole fraction)
Just the number, please, no unit after it.

Ask | Consider the molecule shown here: O=C(O)c1cc2ccccc2[nH]1 What is its recorded solubility (mole fraction)?
Reply | 0.0525

###

runConditions: in dichloromethane, 313.15 K
reportedEndpoint: solubility (mole fraction)

Ask | Given the compound O=C(O)c1cc2ccccc2[nH]1 , what is its reported solubility (mole fraction)?
Reply | 0.00224

###

runConditions: in water, 318.15 K
reportedEndpoint: solubility (mole fraction)
Enter a number only.

Ask | Query (compound): O=C(O)c1cc2ccccc2[nH]1 ; field requested: solubility (mole fraction)
Reply | 9.36e-05

###

runConditions: in water, 298.15 K
reportedEndpoint: solubility (mole fraction)

Ask | Name the recorded solubility (mole fraction) for O=C(O)c1cc2ccccc2[nH]1 .
Reply | 6.88e-05

###

runConditions: in 1,4-dioxane, 286.35 K
reportedEndpoint: solubility (mole fraction)
Form: value (number only, do not type unit).

Ask | Fill in: solubility (mole fraction) of O=C(O)c1cc2ccccc2[nH]1 is ___
Reply | 0.00276

###

runConditions: in n-propanol, 349.75 K
reportedEndpoint: solubility (mole fraction)
Just the number, please, no unit attached.

Ask | Requested read-out: solubility (mole fraction). Entry: O=C(O)c1cc2ccccc2[nH]1
Reply | 0.162

###

runConditions: in isopropanol, 298.15 K
reportedEndpoint: solubility (mole fraction)
Just the number, please, no unit after it.

Ask | Could you tell me which solubility (mole fraction) is on file for O=C(O)c1cc2ccccc2[nH]1 ?
Reply | 0.0701

###

runConditions: in n-butanol, 291.05 K
reportedEndpoint: solubility (mole fraction)
Hey, just send me the number, nothing else.

Ask | Look at this molecule and give its reported solubility (mole fraction). O=C(O)c1cc2ccccc2[nH]1
Reply | 0.0605

###

runConditions: in n-butanol, 353.45 K
reportedEndpoint: solubility (mole fraction)
Answer with a bare number; do not write a unit.

Ask | Recorded solubility (mole fraction) of O=C(O)c1cc2ccccc2[nH]1 , please.
Reply | 0.174

###

runConditions: in water, 328.15 K
reportedEndpoint: solubility (mole fraction)
Enter a number only.

Ask | Any idea what its solubility (mole fraction) is? The molecule is O=C(O)c1cc2ccccc2[nH]1
Reply | 0.000149

###

runConditions: in toluene, 348.25 K
reportedEndpoint: solubility (mole fraction)

Ask | If you can, please state the reported solubility (mole fraction) value of O=C(O)c1cc2ccccc2[nH]1 .
Reply | 0.00427

###

runConditions: in 1,4-dioxane, 312.15 K
reportedEndpoint: solubility (mole fraction)
Keep it simple and answer with nothing but the number.

Ask | # input molecule: O=C(O)c1cc2ccccc2[nH]1 ; wanted: its solubility (mole fraction)
Reply | 0.00592

###

runConditions: in toluene, 360.15 K
reportedEndpoint: solubility (mole fraction)

Ask | Look up solubility (mole fraction): O=C(O)c1cc2ccccc2[nH]1
Reply | 0.00642

###

runConditions: in methanol, 323.15 K
reportedEndpoint: solubility (mole fraction)
// response body must contain only the number

Ask | Reported solubility (mole fraction), compound O=C(O)c1cc2ccccc2[nH]1 : ____
Reply | 0.159

###

runConditions: in methanol, 303.35 K
reportedEndpoint: solubility (mole fraction)
Please give only the number in your answer, with no unit.

Ask | Report solubility (mole fraction) for O=C(O)c1cc2ccccc2[nH]1 please.
Reply | 0.0925
